Please go through the items and note down their TGI.
- System: UACC-62 melanoma
- Test Method Notes: NCI tumour cell line growth inhibition, 48 h

Data request: Requested field: TGI. Item: COc1cc(CNc2nc3ccccc3nc2C(=O)O)cc(OC)c1OC
Data returned: > 100 µM

Data request: GET /values?readout=TGI&item= COc1cccc(C2c3cc4c(cc3OC3COC(=O)C32)OCO4)c1OC (configuration not stated)
Data returned: > 100 µM

Data request: What TGI value was documented for this compound, CC(C)(C)NC(=O)CCC1C(C(=O)NC(C)(C)C)C2(Cl)C(Cl)=C(Cl)C1(Cl)C2(Cl)Cl (configuration not stated) ?
Data returned: > 100 µM

Data request: Look up TGI: CN(C)CCNC(=O)c1cccc2c(NC(CCC(N)=O)C(=O)O)c3ccccc3nc12 (configuration not stated)
Data returned: > 100 µM

Data request: Form field: reported TGI of NC1=NC(=O)C(CC(=O)Nc2ccc(Cl)cc2Cl)S1 (configuration not stated)
Data returned: > 100 µM

Data request: Fill in the blank: the reported TGI of CC1(C)CC(=O)c2c(nc3c4c([nH]c(-c5ccc(Br)cc5)c24)CC(C)(C)C3)C1 is ____.
Data returned: > 100 µM

Data request: What measured TGI goes with CCCCCCCCCCCC[N+](CCCCCCCCCCCC)=C1SCCS1 ?
Data returned: 22.9 µM

Data request: Sample Cc1ccncc1C(N)=O — what was its TGI?
Data returned: > 100 µM

Data request: Given the entry Cn1ccnc1Oc1ccc(Cl)cc1 , report its measured TGI.
Data returned: 23.5 µM

Data request: # input compound: COc1ccc(C2=NOC(N)(c3ccc(OC)cc3)C2)cc1 (configuration not stated) ; wanted: its TGI
Data returned: > 100 µM

Data request: Given CCCc1[nH]c2ccccc2c1-c1c(CCC)[nH]c2ccccc12 , state its recorded TGI.
Data returned: 34.8 µM

Data request: Please report the recorded TGI for Oc1c(-c2cc(C(F)(F)F)[nH]n2)cc(Cl)c(OCc2ccc(Cl)cc2)c1-c1ccc(Cl)c(C(F)(F)F)c1 .
Data returned: 1.42 µM

Data request: For the compound shown here, NNc1nnc(-c2nnc(NN)o2)o1 , give the reported TGI.
Data returned: > 10 µM

Data request: Could you tell me which TGI is on file for COC(=O)C(Cc1c[nH]c2ccccc12)N=C1Nc2ccncc2S(=O)(=O)N1c1cccc(OC(C)C)c1 (configuration not stated) ?
Data returned: > 100 µM

Data request: Fill in the blank: the reported TGI of O=C(NCCNCCO)c1cccc2ccc(-c3ccccc3)nc12 is ____.
Data returned: 13.8 µM

Data request: Fill in: TGI of COC(=O)c1cc(-c2ccc(OC)c(OC)c2)[nH]c1N/N=C/c1c(Cl)cccc1Cl is ___
Data returned: 11.2 µM

Data request: I am curious: what TGI value has been reported for CC(CO)(Nc1ccc([N+](=O)[O-])cc1[N+](=O)[O-])C(=O)O (configuration not stated) ?
Data returned: > 100 µM

Data request: Value lookup for TGI; key = FC(F)(F)c1cccc(-c2nn3ncccc3c2-c2ccnc(Nc3ccc4c(c3)OCCO4)n2)c1
Data returned: > 25 µM

Data request: Consider the compound shown here: c1ccc(CC2COC(c3cccs3)=N2)cc1 (configuration not stated) What is its recorded TGI?
Data returned: > 100 µM

Data request: // query TGI value for entry O=c1c2cc(F)ccc2sc2c(NCCCNCCO)nc3ccccc3c12
Data returned: 3.23 µM

Data request: Look up TGI: O=C(O)c1ccccc1NC(=S)c1ccccc1
Data returned: > 100 µM

Data request: Recorded TGI for O=c1[nH]c2nc3ccccc3c(=O)n2/c1=C/c1ccco1 , please?
Data returned: > 100 µM
